# Test system: LOX IMVI melanoma
# Experiment Description: NCI tumour cell line growth inhibition, 48 h
Experimental Readout: TGI

>>> recorded_measurement("O=C(NC(=S)Nc1ccccc1)c1ccc([N+](=O)[O-])cc1")
"> 100 µM"

Entry C#C[C@]1(O)CC[C@H]2[C@@H]3CCC4=CC(=NCCOC(=O)c5cccc6c(=O)c7ccccc7[nH]c56)CC[C@@H]4[C@H]3CC[C@@]21C : reported TGI = ?
84 µM

Entry CN1C2CCC1CN(CCOC(c1ccc(F)cc1)c1ccc(F)cc1)C2 : reported TGI = ?
39.1 µM

---

# Test system: SK-MEL-5 melanoma
# Experiment Description: NCI tumour cell line growth inhibition, 48 h; in the data active means GI50 below about 0.43 µM; inactive means the rest
Bench note: report the call from y = active, n = inactive

>>> qualitative_label("O=C1Nc2cc(Cl)ccc2/C1=C\\c1c(-c2ccc(F)cc2)nc2ccccn12")
"n"

Each compound tested received a call. Report the one for O=C1c2ccccc2-c2nnc(-c3ccc(Br)cc3)cc21 .
n
